Catalogue of remaining activity at 0.025 µM values
- SYSTEM NAME: HGK/MAP4K4 (Homo sapiens, UniProt O95819)
- Sequence (O95819 whole entry): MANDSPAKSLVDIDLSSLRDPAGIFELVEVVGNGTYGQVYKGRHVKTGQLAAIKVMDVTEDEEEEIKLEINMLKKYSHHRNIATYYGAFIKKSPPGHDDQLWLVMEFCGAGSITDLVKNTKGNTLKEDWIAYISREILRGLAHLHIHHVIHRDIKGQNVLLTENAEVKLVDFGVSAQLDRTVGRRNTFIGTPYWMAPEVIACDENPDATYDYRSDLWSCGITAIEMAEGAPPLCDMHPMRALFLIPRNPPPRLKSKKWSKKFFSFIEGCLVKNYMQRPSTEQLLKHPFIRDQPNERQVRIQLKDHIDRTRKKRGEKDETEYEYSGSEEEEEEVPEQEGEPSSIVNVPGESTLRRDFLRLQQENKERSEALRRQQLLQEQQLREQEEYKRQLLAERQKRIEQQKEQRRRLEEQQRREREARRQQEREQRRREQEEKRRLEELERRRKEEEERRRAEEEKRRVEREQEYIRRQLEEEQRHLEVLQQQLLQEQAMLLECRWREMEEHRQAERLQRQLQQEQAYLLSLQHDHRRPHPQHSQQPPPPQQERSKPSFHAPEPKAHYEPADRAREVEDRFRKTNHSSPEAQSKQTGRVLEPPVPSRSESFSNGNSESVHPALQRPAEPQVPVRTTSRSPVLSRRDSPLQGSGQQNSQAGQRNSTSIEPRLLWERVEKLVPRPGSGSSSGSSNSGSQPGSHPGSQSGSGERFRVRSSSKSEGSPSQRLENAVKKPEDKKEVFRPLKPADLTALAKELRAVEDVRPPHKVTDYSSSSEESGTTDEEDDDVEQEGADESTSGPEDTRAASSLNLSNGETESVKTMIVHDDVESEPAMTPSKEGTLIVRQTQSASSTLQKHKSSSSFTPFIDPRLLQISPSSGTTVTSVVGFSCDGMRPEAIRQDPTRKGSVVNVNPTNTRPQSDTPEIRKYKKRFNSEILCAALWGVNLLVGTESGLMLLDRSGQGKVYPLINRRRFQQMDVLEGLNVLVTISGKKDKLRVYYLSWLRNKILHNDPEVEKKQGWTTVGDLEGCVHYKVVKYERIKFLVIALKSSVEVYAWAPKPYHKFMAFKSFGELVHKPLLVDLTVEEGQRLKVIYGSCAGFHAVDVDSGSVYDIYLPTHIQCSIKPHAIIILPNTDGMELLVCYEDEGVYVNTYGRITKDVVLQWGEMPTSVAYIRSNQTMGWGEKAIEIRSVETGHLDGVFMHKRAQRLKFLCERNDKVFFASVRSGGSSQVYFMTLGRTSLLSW
- PROCEDURE SUMMARY: Radiolabeled ATP kinase assay (Reaction Biology Corp.), HGK
- Format: biochemical
- Set-up: purchased Reaction Biology Corp
- RECORDED CONDITIONS: [Cmpd] 0.025 μM; 10 μM ATP; read-out: % Enzyme Activity (relative to DMSO controls), HGK/MAP4K4, Data 1
- Method: Meanwhile, the same analogs were analyzed in a radiolabeled ATP assay (10 μM ATP; Reaction Biology Corp.) to compare the extent to which they could inhibit the activity of HGK, MLK1, or MLK3 in a cell-free environment (Table S3 and S4).
RECORDED METRIC: remaining activity at 0.025 µM (%)

INSERT INTO measurements (smiles_text, value) VALUES
  ('COC(=O)Nc1cccc(-c2c[nH]c3ncc(-c4ccc(CN5CCN(C)CC5)cc4)cc23)c1', 33.8),
  ('CN1CCN(Cc2ccc(-c3cnc4[nH]cc(-c5ccc(S(C)(=O)=O)nc5)c4c3)cc2)CC1', 92.9),
  ('CN1CCN(Cc2ccc(-c3cnc4[nH]cc(-c5cnn(Cc6ccccc6)c5)c4c3)cc2)CC1', 42.8),
  ('CN1CCN(Cc2ccc(-c3cnc4[nH]cc(-c5cccc(OCc6ccccc6)c5)c4c3)cc2)CC1', 55.5),
  ('Cc1nn(C)c(C)c1-c1c[nH]c2ncc(-c3ccc(CN4CCN(C)CC4)cc3)cc12', 105),
  ('CN1CCN(Cc2ccc(-c3cnc4[nH]cc(-c5ccc(NC(=O)NC6CCCCC6)cc5)c4c3)cc2)CC1', 85.4),
  ('CC(=O)c1ccc(-c2c[nH]c3ncc(-c4ccc(CN5CCN(C)CC5)cc4)cc23)cc1', 30.8),
  ('COC(=O)Nc1ccc(-c2c[nH]c3ncc(-c4ccc(CN5CCN(C)CC5)cc4)cc23)cc1', 39.9),
  ('CN1CCN(Cc2ccc(-c3cnc4[nH]cc(-c5ccc6c(c5)OCCO6)c4c3)cc2)CC1', 19.6),
  ('CN1CCN(Cc2ccc(-c3cnc4[nH]cc(-c5ccc(OC(F)(F)F)cc5)c4c3)cc2)CC1', 96.4),
  ('COc1ccccc1-c1c[nH]c2ncc(-c3ccc(CN4CCN(C)CC4)cc3)cc12', 29.3),
  ('CN1CCN(Cc2ccc(-c3cnc4[nH]cc(-c5cnn(C)c5)c4c3)cc2)CC1', 77.8),
  ('Cc1ccc(S(=O)(=O)n2cc(-c3ccc4[nH]ccc4c3)c3cc(-c4ccc(C=O)cc4)cnc32)cc1', 102),
  ('CN1CCN(Cc2ccc(-c3cnc4[nH]cc(-c5ccc6cnn(C)c6c5)c4c3)cc2)CC1', 32.5),
  ('CN1CCN(Cc2ccc(-c3cnc4[nH]cc(-c5cccc(C(=O)O)c5)c4c3)cc2)CC1', 63.6),
  ('CN1CCN(Cc2ccc(-c3cnc4[nH]cc(-c5cc(C(F)(F)F)cc(C(F)(F)F)c5)c4c3)cc2)CC1', 103);

These measurements were taken from patent US12227500B2.
